Biological target: human ether-à-go-go-related gene (hERG) potassium channel (human, UniProt Q12809)
Sequence (Q12809 whole entry, looked up): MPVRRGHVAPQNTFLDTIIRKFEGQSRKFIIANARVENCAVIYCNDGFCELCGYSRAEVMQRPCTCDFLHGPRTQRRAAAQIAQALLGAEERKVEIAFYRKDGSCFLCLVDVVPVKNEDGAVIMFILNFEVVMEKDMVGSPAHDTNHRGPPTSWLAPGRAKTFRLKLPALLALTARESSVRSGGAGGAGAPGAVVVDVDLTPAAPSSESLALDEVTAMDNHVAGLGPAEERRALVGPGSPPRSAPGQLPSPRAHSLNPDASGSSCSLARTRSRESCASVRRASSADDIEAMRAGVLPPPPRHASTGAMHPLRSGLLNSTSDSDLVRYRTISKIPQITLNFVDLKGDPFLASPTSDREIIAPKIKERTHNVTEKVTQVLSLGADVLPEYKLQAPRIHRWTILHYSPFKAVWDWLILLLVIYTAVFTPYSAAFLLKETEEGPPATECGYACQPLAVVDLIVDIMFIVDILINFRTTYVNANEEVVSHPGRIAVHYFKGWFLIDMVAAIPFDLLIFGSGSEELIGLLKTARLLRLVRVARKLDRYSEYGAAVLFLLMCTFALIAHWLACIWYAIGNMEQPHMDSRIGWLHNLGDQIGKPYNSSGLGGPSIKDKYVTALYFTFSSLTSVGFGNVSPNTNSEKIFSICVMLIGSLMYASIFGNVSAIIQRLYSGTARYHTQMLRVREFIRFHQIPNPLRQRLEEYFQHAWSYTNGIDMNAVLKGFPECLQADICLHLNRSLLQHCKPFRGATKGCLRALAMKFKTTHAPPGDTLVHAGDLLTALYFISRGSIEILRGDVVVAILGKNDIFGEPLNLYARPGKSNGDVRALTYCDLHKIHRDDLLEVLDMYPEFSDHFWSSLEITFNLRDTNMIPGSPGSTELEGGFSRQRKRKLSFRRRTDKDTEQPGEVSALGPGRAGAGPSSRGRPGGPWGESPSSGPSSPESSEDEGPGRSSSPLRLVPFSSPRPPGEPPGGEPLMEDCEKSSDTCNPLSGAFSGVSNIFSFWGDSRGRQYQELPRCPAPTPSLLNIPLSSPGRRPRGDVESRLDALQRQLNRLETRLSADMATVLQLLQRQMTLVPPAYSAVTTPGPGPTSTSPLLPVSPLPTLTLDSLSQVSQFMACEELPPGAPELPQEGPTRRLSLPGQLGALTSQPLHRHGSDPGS
Experiment: primary screen, population patch clamp on CHO cells stably expressing hERG; higher = less effect of the substance
Hit rate of the full screen: of about 310,000 compounds, about 2,200 (0.71%) showed an effect of 50% or more. Effects have a minus sign here. The sample as a whole holds a higher share of strong results than the screen did.
Recorded hERG current change (%, negative = inhibition) at 1uM values for a group of compounds are listed next.
Numeric only. Scale: %

Ask | # query: hERG current change (%, negative = inhibition) at 1uM of entry COc1ccc(CN2C3CCCC2CC(NC(=O)Nc2ccccc2)C3)cc1 (centres unmarked)
Reply | -64

Ask | // lookup hERG current change (%, negative = inhibition) at 1uM for `CCOC(=O)N1CCN(C(=O)CSc2ccc3nnc(-c4ccccn4)n3n2)CC1`
Reply | 2.22

Ask | Reported hERG current change (%, negative = inhibition) at 1uM, compound `Cc1c(C)c2cc(Cl)c(O)c(CN(C)C)c2oc1=O` : ____
Reply | 15.4

Ask | Could you share which hERG current change (%, negative = inhibition) at 1uM value was measured for `COc1ccc(C(=O)CN2CCN(S(=O)(=O)c3cccc([N+](=O)[O-])c3)CC2)cc1` ?
Reply | -64.3

Ask | State the recorded hERG current change (%, negative = inhibition) at 1uM for this entry: `CCCC(=O)Nc1nnc(CCc2ccccc2)s1.Cl`
Reply | 12.1

Ask | Give its hERG current change (%, negative = inhibition) at 1uM value. Item: `O=C(CN1CCN(Cc2ccccc2)CC1)Nc1ccc(F)c(F)c1.O=C(O)C(=O)O`
Reply | -21.9

Ask | I have this compound here, `COc1ccc(C(=O)CN2CCN(S(=O)(=O)c3cccc([N+](=O)[O-])c3)CC2)cc1OC` , and I need its recorded hERG current change (%, negative = inhibition) at 1uM.
Reply | 3.44

Ask | For the compound `Cc1ccc(C)c(CSc2ccc3nnc(-c4ccccn4)n3n2)c1` , what hERG current change (%, negative = inhibition) at 1uM is on record?
Reply | -54.3

Ask | Given the compound C=CCc1ccc(OCC(O)CN2CCC(Cc3ccccc3)CC2)c(OC)c1.Cl (centres unmarked) , what is its reported hERG current change (%, negative = inhibition) at 1uM?
Reply | -75

Ask | # input compound: C=CCc1ccccc1OCC(O)CN1CCN(c2ccccc2OC)CC1.Cl (centres unmarked) ; wanted: its hERG current change (%, negative = inhibition) at 1uM
Reply | -52.3

Next:
Ask | Dear colleague, I am looking for the recorded hERG current change (%, negative = inhibition) at 1uM of the following compound: C=CCc1ccc(OCC(O)CN2CCN(c3ccccc3)CC2)c(OC)c1.Cl (centres unmarked)
Reply | -33.7

Ask | # input compound: CCOc1ccc(CN2CCN(Cc3[nH]c4ccccc4c3C)CC2CCO)cc1 (centres unmarked) ; wanted: its hERG current change (%, negative = inhibition) at 1uM
Reply | -75.2

Ask | # input compound: `O=C(CN1CCN(CC(=O)Nc2ccccc2Cl)CC1)Nc1ccc(F)c(F)c1` ; wanted: its hERG current change (%, negative = inhibition) at 1uM
Reply | -74

Ask | Which hERG current change (%, negative = inhibition) at 1uM value belongs to `O=C(CSc1ccc2nnc(-c3ccccn3)n2n1)N1CCOCC1` ?
Reply | 6.32

Ask | Endpoint output: hERG current change (%, negative = inhibition) at 1uM of COc1ccc(CN2C3CCCC2CC(NC(=O)Nc2ccccc2C)C3)cc1 (centres unmarked) . Value?
Reply | -36.5

Ask | Reported hERG current change (%, negative = inhibition) at 1uM, compound `O=C(O)Cc1ccc(O)c(F)c1` : ____
Reply | 4.7

Ask | What does the record list as hERG current change (%, negative = inhibition) at 1uM for `Cc1nc(-c2ccc([N+](=O)[O-])cc2)nc2[nH]ccc(=O)c12` ?
Reply | 14.5

Ask | Requested field: hERG current change (%, negative = inhibition) at 1uM. Item: Cc1ccc(C(O)CN2C3=NCCN3c3ccccc32)cc1.Cl (centres unmarked)
Reply | -40.9

Cited source for all entries: paper PMC4336329
